Target: enzyme ACAT-1 (Homo sapiens, UniProt P35610)
Construct: endogenous in cells
Sequence (P35610 whole entry): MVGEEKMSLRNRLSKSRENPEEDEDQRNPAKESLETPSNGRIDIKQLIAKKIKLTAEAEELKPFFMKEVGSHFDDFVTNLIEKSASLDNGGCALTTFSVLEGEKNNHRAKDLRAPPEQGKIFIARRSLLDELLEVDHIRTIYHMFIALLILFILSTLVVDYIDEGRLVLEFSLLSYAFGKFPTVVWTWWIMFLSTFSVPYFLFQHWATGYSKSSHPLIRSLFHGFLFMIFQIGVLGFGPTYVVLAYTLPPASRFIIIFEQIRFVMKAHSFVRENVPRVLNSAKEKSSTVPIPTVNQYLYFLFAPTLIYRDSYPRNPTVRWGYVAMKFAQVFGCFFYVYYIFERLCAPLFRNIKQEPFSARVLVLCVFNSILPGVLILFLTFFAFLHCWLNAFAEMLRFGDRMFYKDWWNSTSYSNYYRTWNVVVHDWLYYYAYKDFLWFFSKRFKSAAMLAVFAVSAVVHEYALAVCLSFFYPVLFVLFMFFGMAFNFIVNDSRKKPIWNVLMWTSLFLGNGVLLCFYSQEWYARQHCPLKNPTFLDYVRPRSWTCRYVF
Assay: HepG2 NBD-cholesterol fluorescence test of inhibitory activity towards ACAT-1 (SOAT-1)
Conditions: HepG2 cells, NBD-cholesterol 1 μg/ml, incubation 6 hours at 37° C., fluorescence read (490/540 nm)
Description: The compounds (I) according to the invention, and also the pharmaceutically acceptable salts, solvates and/or hydrates thereof, have inhibitory properties on the enzyme SOAT-1. This inhibitory activity on the enzyme SOAT-1 is measured according to a HepG2 primary enzymatic test, as described in Example 11. […] The principle of this test is based on the use of NBD-cholesterol, a cholesterol analogue whose fluorescence depends on its environment. […]
pIC50: −log10 of the molar value.
PROPERTY LABEL: pIC50

INSERT INTO assay_data (structure_smiles_string, property_label, value_observed) VALUES
  ('COc1ccc(N2C(=O)N(CC(=O)Nc3c(C(C)C)cccc3C(C)C)C(=O)C23CCCCC3)cn1', 'pIC50', 8.52),
  ('Cc1ccc(N2C(=O)N(CC(=O)Nc3c(C(C)C)cccc3C(C)C)C(=O)C23CCCCC3)cn1', 'pIC50', 9.22),
  ('Cc1ccc(N2C(=O)N(CC(=O)Nc3c(C(C)C)cccc3C(C)C)C(=O)C23CCOCC3)cn1', 'pIC50', 7.10),
  ('CC(C)c1cccc(C(C)C)c1NC(=O)CN1C(=O)N(c2cccnc2)C2(CCCCC2)C1=O', 'pIC50', 8.05),
  ('Cc1cnc(N2C(=O)N(CC(=O)Nc3c(C(C)C)cccc3C(C)C)C(=O)C23CCCCC3)cn1', 'pIC50', 8.26);

Hey, just so you know, these numbers are from patent US8445523B2.
